experiment: Apparent permeability of the compound by PAMPA assay; assay type: ADME
Property: Papp; scope: individual compounds
State just the number; it will be interpreted in nm/s.

Reference set (2 entries):
structure.notation	Papp / nm/s
Cc1ccc(Nc2nc3c(s2)CCCc2[nH]ncc2-3)nc1	27
Cc1cccnc1Nc1nc2c(s1)CCCc1[nH]ncc1-2	80

stdin: Reported Papp, compound `Cc1cccc(Nc2nc3c(s2)CCCc2[nH]ncc2-3)n1` : ____
stdout: 49

stdin: Same read-out for `c1cc(Nc2nc3c(s2)CCc2[nH]ncc2-3)ccn1` ?
stdout: 25

stdin: Same read-out for `Cc1cc(C)nc(Nc2nc3c(s2)CCCc2[nH]ncc2-3)c1` ?
stdout: 12

stdin: Same read-out for `Cc1ccc(Nc2nc3c(s2)CCCc2n[nH]cc2-3)nn1` ?
stdout: 310
